Cited source: patent US20200339680A1

Target: T1, human TMEM106B (human, UniProt Q9NUM4 2-274)
T1 construct: full-length, transiently expressed on HEK293 cells, or natively expressed on HeLa, U251 and A549 cells (the cell is named under assay); also the source of the Pepscan peptides; also called huTMEM106B; huTMEM
Assay: FACS A549 1 ug/ml
MFI values for the binders below.
Give just the numeric value; MFI need not be written.

binder	unit annotation	MFI
TM-9 (antibody, V domains shown) VH: EVQLVESGGDLVKPGGSLKLSCVASGFTFSGYGMSWVRQTPDKRLEWVATISSGSFYIYYPDSVKGRLTVSRDNAKNTLYLQMSSLKSEDTAIYYCARQNFYYGCEDYWGQGTTLTVSS VL: DIVMTQAAFSNPVTLGTSASISCRSSKSLLHSNGITYLYWYLQKPGQSPQLLIYQMSNLASGVPNRFSSSGSGTDFTLRISRVEAEDVGVYYCAQNLELPWTFGGGTKLEIK	MFI	4880
TM-49 (antibody, V domains shown, mouse IgG (hybridoma)) VH: QVQLQQPGAELVRPGSSVKLSCKASGYTFTRFWMHWVKQRPIQGLEWIGNIDPSDSQTHYNQKFKDKATLTVDKSSSTAYMQLSSLTSEDSAVYYCARLITVDYAMDYWGQGTSVTVSS VL: QIVLTQSPAIMSASPGEKVTISCSASSSVSYMYWYQQKPGSSPKPWIHRTSNLASGVPVRFSGSGSGTSYSLTISSMEAEDAATYYCQQYHSYPPTFGAGTKLELK	MFI	473

Now look at this one.
Looking for the measured MFI of TM-3 (antibody, V domains shown) VH: QVTLKESGPGIVQPSQTLSLTCSFSGFSLNTLGRGVGWIRQPSGKGLEWLAKIWWNDDKFYYPALKSRLTISKDTSKNQIFLKIANVDTADSATYYCARIAGGTGAAYWGQGTTLTVSS VL: DIVMTQAAFSNPVTLGTSASISCRSSKSLLHSNGITYLYWYLQKPGQSPQLLISQMSSLASGVPDRFSSGGSGTDFTLRISRVEAEDVGVFYCAQNLELPWTFGGGTKLELK , can you help?
4840
